Origin of measurements: PubChem BioAssay (NCI)

System: K-562 leukemia
Test: NCI-60 one-dose screen, 48 h (100 = growth as untreated, 0 = no growth, -100 = all killed)
Conditions: 10 µM unless noted
About 83,000 compounds went through this panel and 20% of them were active in at least one assay; those are over-represented in the sample as a whole. Activity calls are given as the source filed them. How the source made its calls: active means growth percent below 10; inactive means the rest.
RESULT TYPE: growth

Answered cases to consult:
# MOLECULE, growth
measured = [
    ("CS(=O)(=O)Nc1cc(-c2ccc3ncc(C#N)c(N[C@H](CO)c4ccccc4)c3c2)cnc1Cl", "41.4% (inactive)"),
    ("COc1cccc(N2CCN(c3ncnc4c3[nH]c3ccc(F)cc34)C[C@H]2C)c1", "26.6% (inactive)"),
    ("O=S(=O)(NCCNc1nccc(-n2cnc3ccccc32)n1)c1ccc(C(F)(F)F)cc1", "40.8% (inactive)"),
    ("CCO/C=N/C1=C(C#N)C(c2ccc(Cl)cc2)c2sc3c(C)cccc3c2O1 (stereo unspecified)", "7.31% (active)"),
    ("CCOc1cccc(-c2nc3sccn3c2-c2ccnc(S(C)(=O)=O)n2)c1", "55.4% (inactive)"),
]

Now for the molecule whose growth we want.
Report growth for "C=CCn1c(-c2nc3ccc(C(=C(C#N)C#N)c4ccccc4)cc3[nH]2)cc2cc(Br)ccc21" tested on K-562 leukemia.
23.7% (inactive)

###

Tested on: OVCAR-3 ovarian
Experiment: NCI-60 one-dose screen, 48 h
Settings: 10 µM unless noted
The panel holds about 83,000 compounds, 20% with a hit somewhere; the sample as a whole holds those more often. Activity calls are given as the source filed them. How the source made its calls: active means growth percent below 10; inactive means the rest.
Lab note: assign the record to one of active, inactive

# MOLECULE, CATEGORY
measured = [
    ("COc1cc(Cn2cc3c(c2)-c2onc(CN4CCOCC4)c2CC3)cc(OC)c1OC", "inactive"),
    ("Cn1cc(-c2nc(N)nnc2-c2c[nH]c3ccccc23)c2cc(Br)ccc21", "inactive"),
]

Consider the record given below.
Dear colleague, could you share the recorded outcome for "O=S(=O)(Nc1ccc(I)cc1Cl)c1ccc(-c2cnc(C3CC3)o2)cc1" when you have a moment?
active

###

Test system: RXF 393 renal
Test: NCI-60 one-dose screen, 48 h (100 = growth as untreated, 0 = no growth, -100 = all killed)
Conditions: 10 µM unless noted
Compounds without any hit were thinned out: in the full panel of roughly 83,000, 20% have a hit.
Heads up, the class ranges for growth are range A: < -10%; range B: ≥ -10% and < 50%; range C: ≥ 50%

Returns: class label. Input: "Cc1cc2nc(C(Cl)Cl)nc(-c3cccs3)n2n1"
range A

Band of CCCC(=O)NC(c1cccnc1)c1cc(C(C)(C)C)c2cccnc2c1O (stereo not drawn) ?
range C

// return the class label for "O=c1[nH]c(Sc2sc3ccc(Cl)cc3c2CBr)nc(=S)[nH]1"
range B

Category of CC(=O)N1N=C(c2cccc(-n3cccc3)c2)CC1c1cccc(F)c1 (stereo not drawn) , please.
range C

Any idea which band "Cc1noc(C)c1CSc1nc2ccccc2n1-c1ccccc1" is in?
range C

###

Tested on: MALME-3M melanoma
Experiment: NCI-60 one-dose screen, 48 h (100 = growth as untreated, 0 = no growth, -100 = all killed)
Details: 10 µM unless noted
About 83,000 compounds went through this panel and 20% of them were active in at least one assay; those are over-represented in the sample as a whole. The source made the active and inactive calls. Rule for the calls: active = growth percent below 10; inactive = the rest.
Can you tell me growth for the items I'm about to list?

Previously resolved entries follow.
# COMPOUND, TARGET SYSTEM, growth
rows = [
    ("Cn1ccnc1C(=O)/C=C/c1ccc(CNC(=O)c2ccc(S(F)(F)(F)(F)F)cc2)cc1", "MALME-3M melanoma", "89.9% (inactive)"),
    ("O=C(Nc1ccc(F)c(F)c1)c1cc(-c2ccc(F)cc2F)ccc1O", "MALME-3M melanoma", "-13.9% (active)"),
    ("C[C@H](CCC(=O)NCc1ccc(C(=O)Nc2ccccc2N)cc1)[C@H]1CC[C@H]2[C@@H]3[C@@H](O)C[C@@H]4C[C@H](O)CC[C@]4(C)[C@H]3CC[C@]12C", "MALME-3M melanoma", "45% (inactive)"),
    ("CNC(=O)c1cc(N2CCc3cc(NC(=O)Nc4ccc(Cl)c(C(F)(F)F)c4)ccc32)ccn1", "MALME-3M melanoma", "64.5% (inactive)"),
    ("CCC(NC(c1cc2cccc3ccc4cccc1c4c32)c1nnnn1C(C)(C)C)C1CCCCC1 (centres undefined)", "MALME-3M melanoma", "83.5% (inactive)"),
    ("N/C(=N\\C(N)=N\\c1nc2ccccc2s1)c1ccncc1Cl", "MALME-3M melanoma", "45.7% (inactive)"),
]

Record growth per entry; entries follow.
1. C=CCOc1cccc(/C=C2\SC(=S)N(C3CC(=O)N(c4ccc(Br)cc4)C3=O)C2=O)c1 (centres undefined)
2. Cc1cccc2c3c(sc12)C(c1ccc(F)cc1)C(C#N)=C(/N=C/c1ccc(Cl)cc1)O3 (centres undefined)
3. COc1ccc2[nH]cc(/C=N/Nc3nc4ccccc4s3)c2c1

1. 100% (inactive)
2. 63.5% (inactive)
3. 98.4% (inactive)

Each of the following entries comes with a recorded value; kindly state growth for each.
1. O=S(=O)(Nc1ccc2c(c1)OCO2)c1ccc(-c2cnc(C3CC3)o2)cc1
2. COc1cc(/C=C/C(=O)c2ccc(NC(=O)CSc3nnc(-c4ccc(-c5nc6ccc(Cl)cc6[nH]5)cc4)o3)cc2)cc(OC)c1OC
3. CCO/C=N/C1=C(C#N)C(c2ccc(OC)cc2)c2sc3c(C)cccc3c2O1 (centres undefined)
4. C=CCn1c(SCC(=O)Nc2ccc(C(=O)/C=C/c3ccc(Cl)cc3)cc2)nnc1-c1c[nH]c2ccccc12
5. COc1cccc2c1CN(C(=O)c1ccc(O)c(C(=O)N3Cc4ccc(OCCC[P+](c5ccccc5)(c5ccccc5)c5ccccc5)cc4C3)c1)C2
6. O=C(O)c1ccc(-n2cc(CNc3cc(F)c(F)c(F)c3)c(-c3cccc(F)c3)n2)cc1

1: 46.2% (inactive); 2: 95.5% (inactive); 3: 60.6% (inactive); 4: 83% (inactive); 5: 70.8% (inactive); 6: 67.2% (inactive)

Dear colleague, could you send me growth for each of the items below? Thanks.
1. C#CC(=O)N(c1ccc(OC)cc1OC)C(C(=O)NCC(=O)OCC)c1cccs1 (centres undefined)
2. O=C(CSc1nnc(-c2ccc(Cl)cc2)n1-c1ccccc1)Nc1cccc(Cl)c1
3. O=C(CSc1nc2ccccc2c(=O)n1-c1ccccc1)Nc1ccc(-c2nc3ccc([N+](=O)[O-])cc3[nH]2)cc1
4. Cc1cc2ncc(-c3cc4ccccc4c(N4CCN(C)CC4)n3)nc2cc1C
5. O=C(NNc1nc2cc(F)cc(F)c2n2cccc12)c1cnccn1
6. CCNC(=O)N1CCc2cc(OC)c(OCCc3ccc(OC)c(N)c3)cc2C1c1cc(C)c(C)cc1C (centres undefined)
7. CCOC(=O)C(=O)/C(=C\c1ccc(Cl)cc1)C(=O)N1C(=S)NC(=O)C1CC(C)C (centres undefined)
8. O=C(Nc1ccc2c(ccn2Cc2ccccn2)c1)c1ccnnc1

["-61.8% (active)", "75.9% (inactive)", "71.1% (inactive)", "-69.1% (active)", "23.1% (inactive)", "45.5% (inactive)", "99.8% (inactive)", "103% (inactive)"]

State the recorded growth for this entry: "COc1ccc(-c2nc(C(Cl)Cl)nc3cc(-c4ccccc4)nn23)cc1"
-44.9% (active)

###

System: ACHN renal
Assay: NCI-60 one-dose screen, 48 h (100 = growth as untreated, 0 = no growth, -100 = all killed)
Details: 10 µM unless noted
Compounds without any hit were thinned out: in the full panel of roughly 83,000, 20% have a hit.
RESULT TYPE: growth (%)
Answers are plain numbers, in %.

// below: answered molecules
# MOLECULE, TARGET SYSTEM, REPORTED MEASUREMENT
data = [
    ("O=C(NNc1nc2cc(F)cc(F)c2n2cccc12)c1cnccn1", "ACHN renal", 14.5),
    ("NS(=O)(=O)c1ccc(Nc2cc(-c3ccccc3)nc(SCC(=O)c3ccccc3)n2)cc1", "ACHN renal", 105),
    ("CN(C)CCCOc1ccc2c(c1)CN(C(=O)c1cc(C(=O)N3Cc4cccc(F)c4C3)ccc1O)C2", "ACHN renal", 106),
    ("c1ccc(C(c2nc3ncncc3[nH]2)N2CSc3nc4ncncc4n3C2)cc1 (stereo not drawn)", "ACHN renal", 81.9),
    ("COc1c(N2CC3CCCNC3C2)c(F)cc2c(=O)c(C(=O)N/N=C/c3ccc(N(C)C)cc3)cn(C3CC3)c12 (stereo not drawn)", "ACHN renal", 46.8),
]

Return reported growth values for all items listed beneath this line.
1. COc1ccc(/C=N/NC(=O)c2cn(C3CC3)c3c(OC)c(N4CC5CCCNC5C4)c(F)cc3c2=O)cc1 (stereo not drawn)
2. C=C(C=O)[C@@H]1CC[C@]2(C)[C@H](CC=C3[C@H]4[C@@H](C)[C@H](C)CC[C@]4(C(=O)OC)CC[C@]32C)[C@@]1(C)CCC#N
3. Cn1ccnc1C(=O)/C=C/c1ccc(CNC(=O)c2c(F)c(F)c(F)c(F)c2F)cc1

88.7
-71.9
47.9
